Test system: MCF7
PROCEDURE_DETAILS: Induction of cell cycle arrest in human MCF7 cells assessed as accumulation of cells in G0 phase at 2 uM after 24 hrs by flow cytometry (reference value: 2.9%)
Format: functional
QUANTITY: Activity

Memo: Oc1ccc(C(c2c[nH]c3ccccc23)c2c[nH]c3ccccc23)cc1 , reported Activity: 3%

Memo: Oc1cccc(C(c2c[nH]c3ccccc23)c2c[nH]c3ccccc23)c1 , reported Activity: 2.9%

Memo: COc1cc2c(cc1OCCCCCOc1cccc(C(c3c[nH]c4ccccc34)c3c[nH]c4ccccc34)c1)N=C[C@@H]1CCCN1C2=O , reported Activity: 3.47%

Memo: COc1cc2c(cc1OCCCCCOc1ccc(C(c3c[nH]c4ccccc34)c3c[nH]c4ccccc34)cc1)N=C[C@@H]1CCCN1C2=O , reported Activity: 3.96%

Memo: COc1cc2c(cc1O)N=C[C@@H]1CCCN1C2=O , reported Activity: 3.72%

###

Tested on: MCF7
PROCEDURE_DETAILS: Induction of cell cycle arrest in human MCF7 cells assessed as accumulation of cells in G0 phase at 2 uM after 24 hrs by flow cytometry relative to untreated control
Format: functional
Think of 3% as a floor: if Activity stands on it or above, it is Satisfied; beneath it, Not satisfied.

**Query** Would you say Oc1cccc(C(c2c[nH]c3ccccc23)c2c[nH]c3ccccc23)c1 shows Activity at minimum 3%?
**Result** Not satisfied

**Query** Would you say Oc1ccc(C(c2c[nH]c3ccccc23)c2c[nH]c3ccccc23)cc1 shows Activity at minimum 3%?
**Result** Satisfied

**Query** Would you say COc1cc2c(cc1OCCCCCOc1ccc(C(c3c[nH]c4ccccc34)c3c[nH]c4ccccc34)cc1)N=C[C@@H]1CCCN1C2=O shows Activity at minimum 3%?
**Result** Satisfied

**Query** Would you say COc1cc2c(cc1O)N=C[C@@H]1CCCN1C2=O shows Activity at minimum 3%?
**Result** Satisfied

###

System: MCF7
PROCEDURE_DETAILS: Induction of cell cycle arrest in human MCF7 cells assessed as accumulation of cells in G1 phase at 2 uM after 24 hrs by flow cytometry relative to untreated control
Format: functional
Think of 50% as a floor: if Activity stands on it or above, it is fulfilled; beneath it, not fulfilled.

**Query** Would you say COc1cc2c(cc1O)N=C[C@@H]1CCCN1C2=O shows Activity at minimum 50%?
**Result** fulfilled

**Query** Would you say COc1cc2c(cc1OCCCCCOc1ccc(C(c3c[nH]c4ccccc34)c3c[nH]c4ccccc34)cc1)N=C[C@@H]1CCCN1C2=O shows Activity at minimum 50%?
**Result** not fulfilled

**Query** Would you say COc1cc2c(cc1OCCCCCOc1cccc(C(c3c[nH]c4ccccc34)c3c[nH]c4ccccc34)c1)N=C[C@@H]1CCCN1C2=O shows Activity at minimum 50%?
**Result** not fulfilled

**Query** Would you say Oc1ccc(C(c2c[nH]c3ccccc23)c2c[nH]c3ccccc23)cc1 shows Activity at minimum 50%?
**Result** fulfilled

###

Tested on: SiHa
PROCEDURE_DETAILS: Anticancer activity against human SiHa cells by SRB method
Format: functional
Kindly state GI50 for each of the entries shown.
The reply should be a number in nM, with the unit left off.

Memo: COc1cccc2c1C(=O)c1c(O)c3c(c(O)c1C2=O)C[C@@](O)(C(=O)CO)C[C@@H]3O[C@H]1C[C@H](N)[C@H](O)[C@H](C)O1 [DOXORUBICIN] , reported GI50: 1900

Memo: COc1cc2c(cc1O)N=C[C@@H]1CCCN1C2=O , reported GI50: 160

Memo: COc1cc2c(cc1OCCCCCCOc1cccc(C(c3c[nH]c4ccccc34)c3c[nH]c4ccccc34)c1)N=C[C@@H]1CCCN1C2=O , reported GI50: 30800

Memo: COc1cc2c(cc1OCCCCOc1ccc(C(c3c[nH]c4ccccc34)c3c[nH]c4ccccc34)cc1)N=C[C@@H]1CCCN1C2=O , reported GI50: 2490

Memo: COc1cc2c(cc1OCCCCCOc1cccc(C(c3c[nH]c4ccccc34)c3c[nH]c4ccccc34)c1)N=C[C@@H]1CCCN1C2=O , reported GI50: 2200

Memo: COc1cc2c(cc1OCCCCCOc1ccc(C(c3c[nH]c4ccccc34)c3c[nH]c4ccccc34)cc1)N=C[C@@H]1CCCN1C2=O , reported GI50: 180
